Attribution: ChEMBL document CHEMBL3988442

Exercise: state measured Percent Effect for each of the compounds provided.
- Tested on: Wolbachia pipientis
- assay.comment: Anti-Wolbachia Cell-Based Screen
- Type: functional
- Design: scale not given: in the data most compounds retested in dose-response had high values
- condition.label: 5 µM
Screen size: about 48,000 compounds; about 13,000 (27%) showed an effect of 50% or more. Some of the results follow.
Output spec: scalar in %, unitless text.

Reading of Percent Effect for CCOc1ccccc1N1CCN(C(=O)NCc2cc[nH]n2)CC1 with Wolbachia pipientis: 100.3

GET /values?item= CCn1c(CN(C)C)nnc1C1CCN(Cc2cccc(F)c2F)CC1 &system= Wolbachia pipientis returns Percent Effect: 8.209

Readout Percent Effect for CC(C)c1ccc(O)c(C(=O)NCc2cc[nH]n2)c1 , test system Wolbachia pipientis, was -15.09

Reported Wolbachia pipientis Percent Effect for item CCS(=O)(=O)c1ncc(CN(C)CCc2ccccn2)n1CCOC was -7.108

The compound CC(C)CCN1CCN(Cc2nc(C3CC3)no2)CC1 , tested on Wolbachia pipientis, showed Percent Effect of -1.38

Form field, Percent Effect with Wolbachia pipientis, item Fc1ccc(CN2CCC(c3noc(-c4cnccn4)n3)CC2)cc1F : 155.5

Percent Effect of NC(=O)c1ccc(CNC(=O)NCc2cc[nH]n2)cc1 , assay on Wolbachia pipientis, is 0.637

Entry COc1cc(F)ccc1C(C(=O)O)N1CCN(C2CCCCC2)CC1 (stereo not drawn) , Wolbachia pipientis data, Percent Effect value: -11.47

Note to self: Percent Effect of O=C(Cc1cccnc1)N1CCCC2(CCN(C3CCOCC3)C2)C1.O=C(O)C(F)(F)F.O=C(O)C(F)(F)F (stereo not drawn) with Wolbachia pipientis was 3.784

Bench note, Wolbachia pipientis: entry CC(C)CCN1CN=C(NS(=O)(=O)c2ccc(F)cc2)NC1 , its Percent Effect = 13.74

Param item: CO[C@H]1CCN(Cc2ccoc2)C[C@@H]1Cc1ccccc1.O=C(O)C(F)(F)F ; param system: Wolbachia pipientis; output Percent Effect: 68.19

Test item CCN(Cc1noc(C)n1)C(=O)CCc1scnc1C ; Wolbachia pipientis; reported Percent Effect was 1.92

Tested on Wolbachia pipientis, the item Cc1cc(CNC(=O)c2cc(C(C)C)n(C)n2)ccc1S(C)(=O)=O showed Percent Effect equal to -6.268

So the reported Percent Effect for CC(C)c1noc(C(C)N2CCN(CCO)CC2)n1 (stereo not drawn) , on Wolbachia pipientis, turned out to be -1.52

Assay Wolbachia pipientis, sample Cc1noc(C)c1Cc1nc(C2CC2)no1 , Percent Effect read: -12.44

Wolbachia pipientis Percent Effect of CCC1c2ccsc2CCN1C(=O)NCc1cc[nH]n1 (stereo not drawn) is 5.553

Entry Fc1ccccc1CN1CCC(c2noc(-c3ccccn3)n2)CC1 , Wolbachia pipientis data, Percent Effect value: 178

Entry Cn1ccnc1CN1CCCC(Cc2ccnc3ccncc23)CC1.O=CO (stereo not drawn) , Wolbachia pipientis data, Percent Effect value: 122.1

I looked up COCCCN1CCCN(C(C)c2nc(C3CC3)no2)CC1 (stereo not drawn) and its Percent Effect for Wolbachia pipientis was -0.2305

Wolbachia pipientis assay, compound Cc1ccc(CCc2nc(C3CCOC3)no2)o1 (stereo not drawn) , recorded Percent Effect = 90.49

Summary line: CC(C)c1noc(C(C)N2CCN(CCCN3CCCC3=O)CC2)n1 (stereo not drawn) , Wolbachia pipientis, reported Percent Effect = 113.6

Percent Effect of Cc1nc(S(=O)(=O)CCn2cccn2)n(CC2CCCO2)c1C (stereo not drawn) , assay on Wolbachia pipientis, is -14.31

Reported Percent Effect (Wolbachia pipientis) for entry O=C(NCc1ccccc1Cn1ccnc1)N1CCOCC1 is -11.31

Entry CN1CCCC(Cc2ccnc3ccncc23)CC1 (stereo not drawn) , Wolbachia pipientis data, Percent Effect value: -6.52

Short answer on Wolbachia pipientis for CC(=O)NCCCOc1c(C)cccc1Cl , Percent Effect: -7.084

Wolbachia pipientis assay, compound N#CC(NC(=O)CC1CCSCC1)c1cnn(-c2ccccc2)c1 (stereo not drawn) , recorded Percent Effect = -2.178

Given the compound COc1ccc(CN2CC[C@@H](O)[C@@H]2Cc2ccccc2)cc1.O=C(O)C(F)(F)F and test system Wolbachia pipientis, the measured Percent Effect is 17.99

The compound CO[C@@H]1CCN(Cc2nccs2)C[C@@H]1Cc1ccccc1.O=C(O)C(F)(F)F , tested on Wolbachia pipientis, showed Percent Effect of -16.15

Observed Percent Effect on Wolbachia pipientis, entry Fc1ccc(CN2CCC(c3n[nH]c4nccnc34)CC2)cc1F , equals -10.9

Fill in: Wolbachia pipientis Percent Effect for CCc1nc(Cn2ccnc2-c2nccn2C)no1 = 0.7793

Reported Wolbachia pipientis Percent Effect for item CC(c1nc(C2CC2)no1)N1CCN(CCn2ccccc2=O)CC1 (stereo not drawn) was -4.377

Tested on Wolbachia pipientis, the item CC(c1nc(C2CC2)no1)N1CCN(CCCN2CCCC2=O)CC1 (stereo not drawn) showed Percent Effect equal to 95.99

Fill in: Wolbachia pipientis Percent Effect for CC(c1nc(C2CC2)no1)N1CCN(CCOCC(F)(F)F)CC1 (stereo not drawn) = 15.62

The reported Wolbachia pipientis Percent Effect of O=C(CC1CC1)N(Cc1cccnc1)CC1CCN(C2CCCC2)CC1 is -16.06

Let me check: CC(=O)Nc1ccc(F)c(S(=O)(=O)NC(C)(C)C)c1 , system Wolbachia pipientis, measured Percent Effect is -3.757

Here CC(C)c1noc(C(C)N2CCN(CCN3CCCC3=O)CC2)n1 (stereo not drawn) was tested on Wolbachia pipientis, and its Percent Effect came to -2.358

Observed Percent Effect, Wolbachia pipientis, CCc1nc(C2CCCN(c3nccc(C)n3)C2)no1 (stereo not drawn) : -0.3429

Bench note, Wolbachia pipientis: entry O=C(NCCc1c[nH]cn1)C1CCCN(Cc2ccco2)C1 (stereo not drawn) , its Percent Effect = -20.31

Wolbachia pipientis data for CO[C@@H]1CCN(Cc2ccoc2)[C@H]1Cc1ccccc1.O=C(O)C(F)(F)F ; its Percent Effect: 118.7

GET /values?item= CO[C@@H]1CCN(C2CCOCC2)C[C@@H]1Cc1ccccc1.O=C(O)C(F)(F)F &system= Wolbachia pipientis returns Percent Effect: -11.13

Item O=S(=O)(N1CCCCCC1)N1CCN(Cc2ccc(F)cc2Br)CC1 was tested on Wolbachia pipientis; the reported Percent Effect is 6.465

Observed Percent Effect, Wolbachia pipientis, Cn1ccnc1CN1CCC(CNS(=O)(=O)c2cccnc2)C1 (stereo not drawn) : 2.394

Entry Cc1noc(CCCc2nc(C3CCOC3)no2)n1 (stereo not drawn) under Wolbachia pipientis had Percent Effect of 78.93

The value of Percent Effect recorded for CCCC(C#N)NC(=O)CCCOc1cccc(C(C)=O)c1 (stereo not drawn) when tested on Wolbachia pipientis reads 17.87

Kindly note: Wolbachia pipientis, Cc1noc(CCCC(=O)N(CC2CCOC2)C2CC2)n1 (stereo not drawn) , Percent Effect value reported: -3.8

Bench note, Wolbachia pipientis: CC(NCCCC#N)c1ccc(-c2ccncc2)cc1 (stereo not drawn) , Percent Effect reads -12.76

// returns Percent Effect for CO[C@@H]1CCN(Cc2ccc(C)o2)[C@H]1Cc1ccccc1.O=C(O)C(F)(F)F with Wolbachia pipientis; value = 10.3

Case O=C(NCc1cc[nH]n1)N1CCC(Oc2ccccc2Cl)CC1 , Wolbachia pipientis, Percent Effect recorded as -25.2
